Reported koff by item:
- SYSTEM_TESTED: Recombinant human his-tagged IGF 1R extracellular domain protein (human) (UniProt P08069)
- ASSAY_DETAILS: SPR, captured antibody, pH 7.4
Number in s⁻¹, nothing else.

[Q] Fill blank: measured koff of the binder VRDN-03051 (antibody, V domains shown) VH: QVELVESGGGVVQPGRSQRLSCAASGFTFSSYGMHWVRQAPGKGLEWVAIIWFDGSSTYYADSVRGRFTISRDNSKNTLYLQMNSLRAEDTAVYFCARELGRRYFDLWGRGTLVSVSS VL: EIVLTQSPATLSLSPGERATLSCRASQSVSSYLAWYQQKPGQAPRLLIYDAHKRATGIPARFSGSGSGTDFTLTISSLEPEDFAVYYCQQRSKWPPWTFGQGTKVESK is ____.
[A] 0.000203

[Q] Now consider VRDN-03127 (antibody, V domains shown) VH: EVQLVESGGGVVQPGRSLRLSCAASGFTFSDYTMHWVRQAPGKGLEWVAIIWFDGSSKYYADSVKSRFTISRDNSKNTLYLQMNSLRAEDTAVYYCARELGRRYFDIWGQGTLVTVSS VL: EIVMTQSPATLSVSPGERATLSCRASQGVSSYLAWYQQKPGQAPRLLIYGASTRATGIPARFSGSGSGTEFTLTISSLQSEDFAVYYCQQRSRWPPWTFGQGTKLEIK .
[A] 7.48e-05

[Q] Now consider VRDN-03130 (antibody, V domains shown) VH: EVQLVESGGGVVQPGRSLRLSCAASGFTFSSYSMHWVRQAPGKGLEWVAIIWFDGSSKYYVDSVKSRFTISRDNSKNTLYLQMNSLRAEDTAVYYCARELGRRYFDIWGQGTLVTVSS VL: EIVMTQSPATLSVSPGERATLSCRASQGVSSNLAWYQQKPGQAPRLLIYGASTRATGIPARFSGSGSGTEFTLTISSLQSEDFAVYYCQQRSRWPPWTFGGGTKLEIK .
[A] 0.000275
